Biological target: human CXCR6 (Homo sapiens)
Construct: expressed in transfected cells
Sequence (O00574 whole entry): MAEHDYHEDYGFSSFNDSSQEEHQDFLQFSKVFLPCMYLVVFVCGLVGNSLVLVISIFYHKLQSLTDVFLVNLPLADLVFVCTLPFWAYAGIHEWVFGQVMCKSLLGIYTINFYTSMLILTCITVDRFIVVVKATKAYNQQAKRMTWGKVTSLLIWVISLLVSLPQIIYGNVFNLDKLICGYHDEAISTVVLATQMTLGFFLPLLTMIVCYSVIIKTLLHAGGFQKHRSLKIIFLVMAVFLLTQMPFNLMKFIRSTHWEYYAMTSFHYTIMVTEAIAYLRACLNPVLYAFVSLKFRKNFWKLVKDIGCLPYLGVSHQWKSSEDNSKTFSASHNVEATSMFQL
Assay: Radioligand Binding Assay (125I-CXCL16 displacement)
Conditions: L1.2 cells stably transfected with human CXCR6 cDNA, 0.1 nM 125I-CXCL16, 4° C., three-hour incubation; read-out: Potency (IC50)
pIC50: −log10 of the molar value.
observable: pIC50

Here is how some molecules turned out for pIC50.
>>> df
                                   molecule  observable  experimental_result
0  CCOc1cc(NC(=O)C(C)O)ccc1S(=O)(=O)Nc1cccc(OC(F)(F)F)c1 (stereo not shown)       pIC50         6.12 to 6.70
1  O=C(Nc1ccc(S(=O)(=O)Nc2cccc(OC(F)(F)F)c2)c(OC(F)(F)F)c1)[C@@H](CO)c1ccccc1       pIC50               ≥ 6.70
2  CCOc1cc(NC(=O)[C@@H](NC(C)=O)C(C)C)ccc1S(=O)(=O)Nc1ccc(C)c(C(F)(F)F)c1       pIC50               ≥ 6.70
3  CCOc1cc(NC(=O)C(OC)c2ccccc2)ccc1S(=O)(=O)Nc1cccc(OC(F)(F)F)c1 (stereo not shown)       pIC50               ≥ 6.70

Please look up its pIC50: Cc1cc(NC(=O)c2ccc(Cl)cc2)ccc1S(=O)(=O)Nc1cccc(C(F)(F)F)c1 5.70 to 6.12

Please look up its pIC50: CCOc1cc(NC(=O)C2CCN(C(=O)OC(C)(C)C)CC2)ccc1S(=O)(=O)Nc1cccc(OC(F)(F)F)c1 4.70 to 5.70

Please look up its pIC50: COc1cc(NC(=O)[C@@H]2CCC[C@H]2N)ccc1S(=O)(=O)Nc1cccc(C(F)(F)F)c1 4.70 to 5.70
